# System: HCT-15 colon
# MEASUREMENT_DESCRIPTION: NCI tumour cell line growth inhibition, 48 h
MEASURED_ATTRIBUTE: TGI

[ask] Any idea what TGI was measured for `c1ccc(C2=NC3(CCCCC3)N(c3nc4ccccc4s3)N2)nc1` ?
[reply] > 100 µM

[ask] Any idea what TGI was measured for COc1cc2c(cc1OC)C13CCN4C=C5CCOC6CC(=O)N2C1C6C5CC43 (stereo unspecified) ?
[reply] > 100 µM

[ask] Any idea what TGI was measured for CCOc1ccc(NC(=O)CC2SC(=Nc3ccc(Cl)cc3)NC2=O)cc1 (stereo unspecified) ?
[reply] > 100 µM

[ask] Any idea what TGI was measured for Cc1ccc(C)c(NC(=O)C(=O)CC(=O)C2CCOC2=O)c1 (stereo unspecified) ?
[reply] > 100 µM

[ask] Any idea what TGI was measured for COc1ccc(S(=O)(=O)NC(C)C(=O)O)cc1 (stereo unspecified) ?
[reply] > 100 µM

[ask] Any idea what TGI was measured for O=c1[nH]c(=O)n(C2CC(O)C(CO)O2)cc1I (stereo unspecified) ?
[reply] > 100 µM

====

# System: SR leukemia
# MEASUREMENT_DESCRIPTION: NCI tumour cell line growth inhibition, 48 h
MEASURED_ATTRIBUTE: TGI (µM)
Write down the numeric answer in µM and omit the unit.

Known TGI results, listed for orientation:
MOLECULE | MEASURED_ATTRIBUTE | RESULT_UNIT | RESULT_NUMBER
CCC(C)[C@@H](NCc1ccccc1)[C@H](OCc1ccccc1)[C@@H]1COC(C)(C)O1 (stereo not given in full) | TGI | µM | 60.5
O=C(O)[C@H]1[C@@H](C2CCCCC2)O[C@@H](C2CCCCC2)O[C@H]1C(F)(F)F | TGI | µM | 46.9

We next turn to a different molecule, shown below.
[ask] Any idea what TGI was measured for `OCCOc1ccc(-c2cc(-c3ccccn3)nc(-c3ccccn3)c2)cc1` ?
[reply] 11.7

====

# System: SW-620 colon
# MEASUREMENT_DESCRIPTION: NCI tumour cell line growth inhibition, 48 h
TGI values by entry
Write down the numeric answer in µM and omit the unit.

MOLECULE | TGI (µM)
CC1=C(C(=O)NCc2ccccc2)C(c2ccc(C3C(C(=O)NCc4ccccc4)=C(C)NC(C)=C3C(=O)NCc3ccccc3)cc2)C(C(=O)NCc2ccccc2)=C(C)N1 | 22.7
O=C(c1ccccc1)c1c(NCC(O)CN2CCCC2)n(Cc2ccccc2)c(=O)n(Cc2ccccc2)c1=O (stereo not given) | 30.4
O=C1c2c(F)c(F)c(F)c(F)c2SC2=NCCN12 | 6.29

[ask] Given the entry COc1ccc(/C(=N/NC(N)=O)C2(O)C(=O)Nc3ccc([N+](=O)[O-])cc32)cc1 (stereo not given) , what TGI was observed with SW-620 colon?
[reply] 50.8

====

# Tested on: NCI-H23 lung
# MEASUREMENT_DESCRIPTION: NCI tumour cell line growth inhibition, 48 h; in the data active = GI50 below about 0.43 µM; inactive = the rest
Answer with one of the outcomes given here: label 1 = active, label 0 = inactive

COMPOUND | LABEL
COc1cc(-c2nn3c(/C=C4/C(=O)Nc5ccccc54)c(-c4ccc(C)cc4)nc3s2)cc(OC)c1OC | label 0
COc1ccc(C#Cc2ccccc2C#CCCCCO)cc1 | label 0
C[n+]1c(/C=C\C=C\N2CCCCC2)sc2ccccc21 | label 1
Cc1cc(C)nc(NC(N)=NCCc2ccccc2)n1 | label 0
C=C1C(=O)O[C@H]2[C@H]1CC/C(CNC(=O)/C=C/c1ccc(Br)cc1)=C\CC[C@@]1(C)O[C@@H]21 | label 0

[ask] Hi team, can someone confirm the assay call for `CC/C(Cc1ccccc1)=C(\c1ccc(OCCN2CCCCCC2)cc1)c1ccc(OC(=O)NCc2ccccc2)cc1` ?
[reply] label 0

[ask] Hi team, can someone confirm the assay call for `C=C(Cn1c(=O)c2ccccc2c2ccccc21)c1ccc(C(=O)Nc2ccccc2N)cc1` ?
[reply] label 0

[ask] Hi team, can someone confirm the assay call for C(=Nc1ccccc1)C1CCCC[N-]1.C(=Nc1ccccc1)C1CCCC[N-]1.[Cu+2].[O-][Cl+3]([O-])([O-])O (stereo unspecified) ?
[reply] label 0

[ask] Hi team, can someone confirm the assay call for Cc1[nH]ncc1-c1cc2nc(C3CC4CCN3CC4)[nH]c(=O)c2s1 (stereo unspecified) ?
[reply] label 0

[ask] Hi team, can someone confirm the assay call for `C=C(CNC(=O)Nc1ccc(-c2ccccc2)cc1)c1ccc(C(=O)Nc2ccccc2N)cc1` ?
[reply] label 0

[ask] Hi team, can someone confirm the assay call for `CCCN(CCC)CCCNCc1cc(I)cc(C)c1O` ?
[reply] label 0

====

TGI values by entry
# Test system: BT-549 breast
# MEASUREMENT_DESCRIPTION: NCI tumour cell line growth inhibition, 48 h

Known TGI results, listed for orientation:
COMPOUND | MEASURED_TARGET | TGI
COc1cccc2c1OC1c3ccccc3OCC1C2 (centres undefined) | BT-549 breast | > 100 µM
COc1cc(/C=C2/SC(c3ccccc3)N(c3ccc(NC(C)=O)cc3)C2=O)cc(OC)c1OC (centres undefined) | BT-549 breast | > 100 µM
CN(C)CCCOc1ccccc1NC1=C(Cl)C(=O)C(Nc2ccccc2OCCCN(C)C)=C(Cl)C1=O | BT-549 breast | 2.99 µM
c1ccc(C2=NC3(CCCCC3)N(c3nc4ccccc4s3)N2)nc1 | BT-549 breast | 58.2 µM
COc1cc(/C=C/C(=O)OCC23CC[C@@]4(C(=O)O)CCC(C)[C@H](C)C4C2=CCC2[C@@]4(C)CC[C@H](O)C(C)(C)C4CC[C@]23C)ccc1O (some centres undefined) | BT-549 breast | 50.6 µM
CC(=O)NC1C(OCc2ccccc2)OC(CO)C(O)C1OCC(=O)NC(C)C(=O)NC(CCC(=O)NCCCCNc1ccc([N+](=O)[O-])c2[nH]c3ccccc3c(=O)c12)C(N)=O (centres undefined) | BT-549 breast | > 100 µM
COc1ccc(-c2nc(N)c(C#N)c3c2CCS(=O)(=O)c2ccc(C)cc2-3)cc1OC | BT-549 breast | > 100 µM
O=C1N[C@H]2c3c(Cl)sc(Cl)c3/C(=N/O)[C@H]2O1 | BT-549 breast | > 100 µM

We next turn to a different compound, shown below.
[ask] Any idea what TGI was measured for `CC(C)(C)OC(=O)CN1CCNCCNCC1` ?
[reply] > 100 µM

====

# Test system: NCI/ADR-RES ovarian
# MEASUREMENT_DESCRIPTION: NCI tumour cell line growth inhibition, 48 h; in the data active means GI50 below about 0.43 µM; inactive means the rest
Answer with one of the outcomes given here: YES (active), NO (inactive)

Solved cases below.
MOLECULE_SMILES | LABEL
CN(C)CCCOc1ccccc1NC1=C(Cl)C(=O)C(Nc2ccccc2OCCCN(C)C)=C(Cl)C1=O | NO
Cc1ccccc1NC(=S)Nc1ccccn1 | NO
O=S(=O)(Nc1ncccn1)c1ccc(N=Nc2ccc(O)c3ncccc23)cc1 | NO
NS(=O)(=O)c1ccc(NC(=O)c2ccc(NC3=C(Cl)C(=O)N(Cc4ccccc4)C3=O)cc2)cc1 | NO
COc1cc(C(=O)OCCCCCCCCCCC[P+](c2ccccc2)(c2ccccc2)c2ccccc2)ccc1O | NO
COc1ccc2c(c1)C(=O)c1c-2n(CCCN)c(=O)c2ccccc12 | YES

[ask] Hi team, can someone confirm the assay call for `CC(=O)N1CCN(C2=Nc3ccccc3CO2)C1=S` ?
[reply] NO

[ask] Hi team, can someone confirm the assay call for `CC1=NN(C(=O)c2ccccc2O)C(=O)/C1=C/c1ccc([N+](=O)[O-])cc1` ?
[reply] NO

[ask] Hi team, can someone confirm the assay call for `COc1cc(-c2nn3c(/C=C4/C(=O)Nc5ccccc54)c(-c4ccc(C)cc4)nc3s2)cc(OC)c1OC` ?
[reply] NO

====

# System: KM20L2 colon
# MEASUREMENT_DESCRIPTION: NCI tumour cell line growth inhibition, 48 h
MEASURED_ATTRIBUTE: TGI

COMPOUND | RESULT
CCCCCCCCCCCOC(=S)NC(C)C | 30.2 µM
CN(C)CC(/C(Cc1ccccc1)=N\NC(=O)C[n+]1ccccc1)c1ccccc1 (stereo unspecified) | > 100 µM
COc1ccc(Cn2c(C)nc3c2C(=O)c2ccccc2C3=O)cc1 | > 75 µM
CCN(CC)CCNC(=O)c1ccccc1NC(=O)C(=O)Nc1ccccc1C(=O)NCCN(CC)CC | > 100 µM
O=C1c2ccccc2C2(O)Nc3cc(O)ccc3C12O (stereo unspecified) | > 100 µM
O=C(Nc1cccc2ccccc12)Oc1ccccc1C1CCCCC1 | 47.5 µM

[ask] Given the entry `S=c1sc2c(Cl)ncnc2n1-c1ccccc1` , what TGI was observed with KM20L2 colon?
[reply] 34.2 µM

[ask] Given the entry `N#C/C(=C\c1ccccc1O)C(N)=O` , what TGI was observed with KM20L2 colon?
[reply] > 100 µM

[ask] Given the entry `Cn1cnc([N+](=O)[O-])c1Sc1nc2cc(Cl)c(F)cc2[nH]1` , what TGI was observed with KM20L2 colon?
[reply] 26.9 µM

[ask] Given the entry C[N+]1(C)CCCC1C(=O)[O-] (stereo unspecified) , what TGI was observed with KM20L2 colon?
[reply] > 100 µM

[ask] Given the entry `O=C(CC1=Nc2nnc(-c3nnc4n3C(=O)C(CC(=O)c3cccnc3)=N4)n2C1=O)c1cccnc1` , what TGI was observed with KM20L2 colon?
[reply] > 100 µM
